# Tgt: T1, human IL-21R extracellular domain His-Flag fusion protein (human, UniProt Q9HBE5 20-232)
# T1 construct: Biotinylated in the HTRF screen; also called hIL-21R-H/F; human IL-21R-H/F
# Protocol: SPR, Ab captured on anti-human IgG
# kon per entry
Respond with the bare value in M⁻¹ s⁻¹.

Binder	kon (M⁻¹ s⁻¹)
AbQ (antibody, human IgG1, V domains shown, CDR3 graft, residue limits derived as for m29; also called VH3/VL2; VH3DM/VL2) VH: QVQLQESGPGLVKPSETLSLTCAVSGYSISSGYYWGWIRQPPGKGLEWIGSISHTGNTYYNPPLKSRVTISVDTSKNQFSLKLSSVTAADTAVYYCARFMGFGRPEYWGQGTLVTVSS VL: SSELTQDPAVSVALGQTVRITCQGDSLRTYYASWYQQKPGQAPVLVIYGKHKRPSGIPDRFSGSSSGNTASLTITGAQAEDEADYYCVARSVVGNPHVLFGGGTQLTVL	439000
AbT (antibody, human IgG1, V domains shown, CDR3 graft, residue limits derived as for m29; also called VHP/VL9; VHPTM/VL9) VH: QVQLQESGPGLVKPSETLSLTCAVSGYSISSGYYWGWIRQPPGKGLEWIGSISHTGNTYYNPPLKSRVTISVDTSKNQFSLKLSSVTAADTAVYYCARGGGISRPEYWGQGTLVTVSS VL: SSELTQDPAVSVALGQTVRITCQGDSLRTYYASWYQQKPGQAPVLVIYGKHKRPSGIPDRFSGSSSGNTASLTITGAQAEDEADYYCVARSNKGNPHVLFGGGTQLTVL	179000
AbP (antibody, human IgG1, V domains shown, CDR3 graft, residue limits derived as for m29; also called VHP/VL20; VHPTM/VL20) VH: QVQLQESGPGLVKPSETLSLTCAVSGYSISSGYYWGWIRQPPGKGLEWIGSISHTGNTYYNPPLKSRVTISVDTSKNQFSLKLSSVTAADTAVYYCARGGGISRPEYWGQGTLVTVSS VL: SSELTQDPAVSVALGQTVRITCQGDSLRTYYASWYQQKPGQAPVLVIYGKHKRPSGIPDRFSGSSSGNTASLTITGAQAEDEADYYCVSRSAKGNPHVLFGGGTQLTVL	194000
AbU (antibody, human IgG1, V domains shown, CDR3 graft, residue limits derived as for m29; also called VHP/VL25; VHPTM/VL25) VH: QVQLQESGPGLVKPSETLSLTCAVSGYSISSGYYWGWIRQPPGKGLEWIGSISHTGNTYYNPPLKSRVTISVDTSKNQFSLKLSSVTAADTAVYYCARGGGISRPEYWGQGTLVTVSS VL: SSELTQDPAVSVALGQTVRITCQGDSLRTYYASWYQQKPGQAPVLVIYGKHKRPSGIPDRFSGSSSGNTASLTITGAQAEDEADYYCTTRSNKGNPHVLFGGGTQLTVL	186000

Consider the record given below.
Look at this binder and give its reported kon. AbR (antibody, human IgG1, V domains shown, CDR3 graft, residue limits derived as for m29; also called VH3/VL18; VH3DM/VL18) VH: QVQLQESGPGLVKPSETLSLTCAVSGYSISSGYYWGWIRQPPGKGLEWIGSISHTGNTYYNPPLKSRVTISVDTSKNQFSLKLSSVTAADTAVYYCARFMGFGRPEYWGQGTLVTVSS VL: SSELTQDPAVSVALGQTVRITCQGDSLRTYYASWYQQKPGQAPVLVIYGKHKRPSGIPDRFSGSSSGNTASLTITGAQAEDEADYYCVTRSVKGNPHVLFGGGTQLTVL
170000

# credit: patent US20120276102A1
